For each entry below, report its BChE, Equivalent Concentration of Reference Compound Rivastigmine value.
# TARGET ENTITY: BChE (Homo sapiens)
# Sequence (P06276 29-602, species assumed): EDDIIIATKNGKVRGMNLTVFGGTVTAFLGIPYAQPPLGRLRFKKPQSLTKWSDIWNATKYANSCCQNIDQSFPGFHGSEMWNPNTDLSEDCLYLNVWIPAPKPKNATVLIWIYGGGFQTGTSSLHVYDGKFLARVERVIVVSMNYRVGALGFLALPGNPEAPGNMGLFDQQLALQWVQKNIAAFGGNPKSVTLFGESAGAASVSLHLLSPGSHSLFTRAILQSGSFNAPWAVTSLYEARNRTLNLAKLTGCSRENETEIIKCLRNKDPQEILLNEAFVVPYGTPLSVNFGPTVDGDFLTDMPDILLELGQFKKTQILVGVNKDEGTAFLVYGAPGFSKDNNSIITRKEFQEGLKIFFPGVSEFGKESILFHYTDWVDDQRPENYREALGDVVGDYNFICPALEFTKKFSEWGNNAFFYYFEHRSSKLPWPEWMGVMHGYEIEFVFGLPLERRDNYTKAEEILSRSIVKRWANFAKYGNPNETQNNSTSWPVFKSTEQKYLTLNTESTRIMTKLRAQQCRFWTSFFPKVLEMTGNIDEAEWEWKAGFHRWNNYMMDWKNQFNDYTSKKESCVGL
# Type: biochemical
# COND: samples 3 mM/dm^3 in DMSO, 0.035 mL; mean ± SEM, n = 3
One number for each entry, in µg/mL.

Illustrative cases are given below, each with its answer.
MOLECULE: COc1cc(C=CC(=O)c2ccccc2)ccc1OC(=O)C(C)c1ccc(CC(C)C)cc1 (centres unmarked) [Compound 2]
MEASURED RESULT: 0.26
//
MOLECULE: COc1ccc(/C=C/C(=O)c2ccccc2)cc1O [Compound 7]
MEASURED RESULT: 0.27

State the recorded BChE, Equivalent Concentration of Reference Compound Rivastigmine for every item in the following list.
1. COc1ccc(C=CC(=O)c2ccccc2)cc1OC(=O)C(C)c1ccc(CC(C)C)cc1 (centres unmarked) [Compound 6]
2. COc1cc(/C=C/C(=O)c2ccccc2)ccc1O [Compound 1]
3. O=C(/C=C/c1ccccc1)c1ccccc1 [Compound 5]

1. 0.22
2. 0.23
3. 0.17

###

# TARGET ENTITY: UniProt:P06276
# Type: biochemical
# COND: samples 3 mM/dm^3 in DMSO, 0.035 mL; mean ± SEM, n = 3
Kindly supply the reported BChE, Equivalent Concentration of Reference Compound Magniflorine values for the records listed here.
One number for each entry, in µg/mL.

COMPOUND: COc1cc(C=CC(=O)c2ccccc2)ccc1OC(=O)C(C)c1ccc(CC(C)C)cc1 (centres unmarked)
TARGET ENTITY: UniProt:P06276
MEASURED RESULT: 0.35

Please go through the list and note BChE, Equivalent Concentration of Reference Compound Magniflorine for each compound.
1. COc1ccc(C=CC(=O)c2ccccc2)cc1OC(=O)C(C)c1ccc(CC(C)C)cc1 (centres unmarked)
2. O=C(/C=C/c1ccccc1)c1ccccc1
3. COc1cc(/C=C/C(=O)c2ccccc2)ccc1O

1: 0.30; 2: 0.23; 3: 0.30

Item: COc1ccc(/C=C/C(=O)c2ccccc2)cc1O | BChE, Equivalent Concentration of Reference Compound Magniflorine: 0.37

###

# Tested on: glutathione peroxidase (GPx)
# PROCEDURE DETAILS: Effect on GPx activity
# Assay type: biochemical
# COND: samples 3 mM/dm^3 in DMSO; mean ± SEM, n = 3
For each of the compounds below, state its GPx Inhibition (%).
Give bare numbers, in %.

Worked examples follow.
COMPOUND: COc1cc(/C=C/C(=O)c2ccccc2)ccc1O
TARGET ENTITY: glutathione peroxidase (GPx)
RESULT UNIT: %
MEASURED RESULT: 30.3

COMPOUND: COc1ccc(/C=C/C(=O)c2ccccc2)cc1O
TARGET ENTITY: glutathione peroxidase (GPx)
RESULT UNIT: %
MEASURED RESULT: 32.4

COMPOUND: COc1ccc(C=CC(=O)c2ccccc2)cc1OC(=O)C(C)c1ccc(CC(C)C)cc1 (stereo not shown)
TARGET ENTITY: glutathione peroxidase (GPx)
RESULT UNIT: %
MEASURED RESULT: 17.4

For reference, reported GPx Inhibition (%) for COc1cc(C=CC(=O)c2ccccc2)ccc1OC(=O)C(C)c1ccc(CC(C)C)cc1 (stereo not shown) stands at 17.0

###

# TARGET ENTITY: UniProt P00390
# PROCEDURE DETAILS: Effect on GR activity
# Assay type: biochemical
# COND: samples 3 mM/dm^3 in DMSO; mean ± SEM, n = 3
Threshold check on GR Inhibition (%): strictly below 30% is criterion met; on or above 30% is criterion not met.

Record excerpt, results attached:
COMPOUND: CC(C)Cc1ccc(C(C)C(=O)O)cc1 (centres unmarked) [Compound 4, ibuprofen, reference compound]
GROUP LABEL: criterion met

COMPOUND: COc1ccc(/C=C/C(=O)c2ccccc2)cc1O
GROUP LABEL: criterion not met

COMPOUND: COc1cc(/C=C/C(=O)c2ccccc2)ccc1O
GROUP LABEL: criterion met

Okay, next one:
Please determine if COc1cc(C=CC(=O)c2ccccc2)ccc1OC(=O)C(C)c1ccc(CC(C)C)cc1 (centres unmarked) is below 30% in terms of GR Inhibition (%).
criterion met

###

# TARGET ENTITY: AChE (Homo sapiens, UniProt P22303)
# Sequence (P22303 32-614): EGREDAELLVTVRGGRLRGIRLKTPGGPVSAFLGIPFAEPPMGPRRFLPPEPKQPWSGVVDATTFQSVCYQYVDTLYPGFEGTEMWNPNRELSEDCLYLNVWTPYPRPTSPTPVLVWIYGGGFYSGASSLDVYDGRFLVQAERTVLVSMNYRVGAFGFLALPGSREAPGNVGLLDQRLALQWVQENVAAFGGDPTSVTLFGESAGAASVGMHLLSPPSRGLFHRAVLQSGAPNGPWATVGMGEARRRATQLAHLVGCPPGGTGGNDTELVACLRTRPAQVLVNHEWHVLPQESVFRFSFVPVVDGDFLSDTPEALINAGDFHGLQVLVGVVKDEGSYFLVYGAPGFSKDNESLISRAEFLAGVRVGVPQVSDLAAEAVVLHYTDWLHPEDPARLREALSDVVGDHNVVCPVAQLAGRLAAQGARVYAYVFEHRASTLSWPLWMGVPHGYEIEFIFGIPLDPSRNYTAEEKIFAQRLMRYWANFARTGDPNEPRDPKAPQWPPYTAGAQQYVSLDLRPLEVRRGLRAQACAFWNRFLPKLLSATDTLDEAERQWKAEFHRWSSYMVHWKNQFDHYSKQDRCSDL
# PROCEDURE DETAILS: Effect on AChE activity (modified Ellman's method)
# Assay type: biochemical
# COND: samples 3 mM/dm^3 in DMSO, 0.035 mL; mean ± SEM, n = 3
Could you please report measured AChE, Equivalent Concentration of Reference Compound Rivastigmine for the items listed next?

Some solved cases for reference:
COMPOUND: O=C(/C=C/c1ccccc1)c1ccccc1
MEASURED RESULT: 0.37 ± 0.03 µg/mL
--
COMPOUND: COc1ccc(/C=C/C(=O)c2ccccc2)cc1O
MEASURED RESULT: 0.51 ± 0.03 µg/mL
--
COMPOUND: COc1cc(/C=C/C(=O)c2ccccc2)ccc1O
MEASURED RESULT: 0.46 ± 0.05 µg/mL
--
COMPOUND: COc1cc(C=CC(=O)c2ccccc2)ccc1OC(=O)C(C)c1ccc(CC(C)C)cc1 (centres unmarked)
MEASURED RESULT: 0.52 ± 0.02 µg/mL

Let's switch to this compound now.
Lookup result for COc1ccc(C=CC(=O)c2ccccc2)cc1OC(=O)C(C)c1ccc(CC(C)C)cc1 (centres unmarked) ; measured AChE, Equivalent Concentration of Reference Compound Rivastigmine: 0.42 ± 0.03 µg/mL

###

# TARGET ENTITY: glutathione reductase (GR) (Homo sapiens, UniProt P00390)
# Sequence (P00390 44-522): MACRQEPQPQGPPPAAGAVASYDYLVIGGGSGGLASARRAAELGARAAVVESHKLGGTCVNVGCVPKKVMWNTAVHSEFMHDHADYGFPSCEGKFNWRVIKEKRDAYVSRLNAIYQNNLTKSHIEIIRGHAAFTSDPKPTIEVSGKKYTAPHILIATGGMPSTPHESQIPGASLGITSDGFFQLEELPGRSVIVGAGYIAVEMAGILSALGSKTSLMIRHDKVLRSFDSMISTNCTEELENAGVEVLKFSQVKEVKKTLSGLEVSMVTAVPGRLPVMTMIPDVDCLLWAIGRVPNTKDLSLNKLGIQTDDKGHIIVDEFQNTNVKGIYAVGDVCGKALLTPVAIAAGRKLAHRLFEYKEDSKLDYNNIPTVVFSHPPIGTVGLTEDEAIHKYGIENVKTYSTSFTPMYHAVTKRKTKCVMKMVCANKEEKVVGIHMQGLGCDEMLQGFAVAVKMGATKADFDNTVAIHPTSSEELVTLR
# PROCEDURE DETAILS: Effect on GR activity
# Assay type: biochemical
# COND: samples 3 mM/dm^3 in DMSO; mean ± SEM, n = 3
# Protocol: We decided to extend the study by measuring the compounds’ ability to inhibit glutathione reductase (GR) and GPx activities, the human cells’ main endogenous enzymatic defence systems. Therefore, we checked the influence of some curcuminoid chalcones on GR and GPx using in vitro spectroscopic methods (Table 2). Moreover, the effects of curcuminoid chalcones on CAT activity were estimated (Table 2). The samples were dissolved in DMSO (Sigma D4540) to obtain a concentration of 3 mM/dm^3. […]
Threshold check on GR activity (NADPH consumption rate): strictly below 1000 nmol Depleted NADPH/min is True; on or above 1000 nmol Depleted NADPH/min is False.

In plain terms, does O=C(/C=C/c1ccccc1)c1ccccc1 [Compound 5] come in under 1000 nmol Depleted NADPH/min for GR activity (NADPH consumption rate)?
False

I'd appreciate it if you could check whether CC(C)Cc1ccc(C(C)C(=O)O)cc1 (centres unmarked) [Compound 4, ibuprofen, reference compound] has GR activity (NADPH consumption rate) smaller than 1000 nmol Depleted NADPH/min.
True

Lab log: compare recorded GR activity (NADPH consumption rate) with 1000 nmol Depleted NADPH/min; is it strictly lower for COc1cc(/C=C/C(=O)c2ccccc2)ccc1O [Compound 1] ?
True

Take the compound COc1ccc(/C=C/C(=O)c2ccccc2)cc1O [Compound 7] and say whether its GR activity (NADPH consumption rate) is less than 1000 nmol Depleted NADPH/min.
False

###

# Test system: glutathione peroxidase (GPx)
# PROCEDURE DETAILS: Effect on GPx activity
# Format: biochemical
# COND: samples 3 mM/dm^3 in DMSO; mean ± SEM, n = 3
VALUE KIND: GPx activity (NADPH consumption rate) (nmol Depleted NADPH/min)
Answers are plain numbers, in nmol Depleted NADPH/min.

Please review the entries below; each comes with its answer.
COMPOUND: COc1cc(/C=C/C(=O)c2ccccc2)ccc1O
VALUE KIND: GPx activity (NADPH consumption rate)
RESULT UNIT: nmol Depleted NADPH/min
MEASURED RESULT: 60.3
//
COMPOUND: COc1cc(C=CC(=O)c2ccccc2)ccc1OC(=O)C(C)c1ccc(CC(C)C)cc1 (stereo not shown)
VALUE KIND: GPx activity (NADPH consumption rate)
RESULT UNIT: nmol Depleted NADPH/min
MEASURED RESULT: 33.8
//
COMPOUND: COc1ccc(C=CC(=O)c2ccccc2)cc1OC(=O)C(C)c1ccc(CC(C)C)cc1 (stereo not shown)
VALUE KIND: GPx activity (NADPH consumption rate)
RESULT UNIT: nmol Depleted NADPH/min
MEASURED RESULT: 34.6

Here is the next item to consider.
Given item COc1ccc(/C=C/C(=O)c2ccccc2)cc1O , the value recorded as its GPx activity (NADPH consumption rate) is 64.4

###

# TARGET ENTITY: AChE (Homo sapiens, UniProt P22303)
# PROCEDURE DETAILS: Effect on AChE activity (modified Ellman's method)
# Type: biochemical
# COND: samples 3 mM/dm^3 in DMSO, 0.035 mL; mean ± SEM, n = 3
VALUE KIND: AChE % (inhibition)
Put down the number, then write its unit next to it.

Guide cases for AChE % (inhibition), answers given:
COMPOUND: COc1ccc(C=CC(=O)c2ccccc2)cc1OC(=O)C(C)c1ccc(CC(C)C)cc1 (centres unmarked)
VALUE KIND: AChE % (inhibition)
MEASURED RESULT: 73.7 ± 5.1%

COMPOUND: COc1cc(/C=C/C(=O)c2ccccc2)ccc1O
VALUE KIND: AChE % (inhibition)
MEASURED RESULT: 80.5 ± 8.2%

COMPOUND: COc1ccc(/C=C/C(=O)c2ccccc2)cc1O
VALUE KIND: AChE % (inhibition)
MEASURED RESULT: 89.8 ± 5.8%

Quick batch: AChE % (inhibition) for everything below.
1. O=C(/C=C/c1ccccc1)c1ccccc1
2. COc1cc(C=CC(=O)c2ccccc2)ccc1OC(=O)C(C)c1ccc(CC(C)C)cc1 (centres unmarked)

1: 65.7 ± 4.7%; 2: 90.5 ± 4.2%
